- method: acute toxicity, oral administration or subcutaneous injection in mice
- Format: in vivo
- applied_conditions: mouse, in vivo; oral administration in mice
value_type: LD50

Memo: OC1O[C@@H]2COC(c3ccccc3)O[C@H]2[C@H](O)[C@H]1O (stereo partly shown) , reported LD50: ~3000 mg/kg
